src = the NIST ThermoML archive (doi:10.1016/j.jct.2013.04.021)

TEST CONTEXT: 298.15 K; 101.33 kPa; Liquid; Sing-around technique in a fixed-path interferometer

[
  {
    "COMPOUND": "CCCCCCCCCCO [decan-1-ol]",
    "speed of sound (m/s)": 1379.4
  },
  {
    "COMPOUND": "CCCCCCO [hexan-1-ol]",
    "speed of sound (m/s)": 1303.5
  },
  {
    "COMPOUND": "CCCCOCCO [2-butoxyethan-1-ol]",
    "speed of sound (m/s)": 1306
  },
  {
    "COMPOUND": "CCCCCCCCO [octan-1-ol]",
    "speed of sound (m/s)": 1347.3
  }
]
